Ref: PubChem BioAssay (NCI)

System: MALME-3M melanoma
measurement protocol: NCI-60 one-dose screen, 48 h (100 = growth as untreated, 0 = no growth, -100 = all killed)
protocol conditions: 10 µM unless noted
The panel holds about 83,000 compounds, 20% with a hit somewhere; the sample as a whole holds those more often. Active and inactive are the calls of the source. The calls were made as follows: active = growth percent below 10; inactive = the rest.
# growth per record follows

molecule: Cc1ccc(S(=O)(=O)N/N=C/c2cn(-c3ccc(F)cc3)nc2-c2ccc(S(C)(=O)=O)cc2)cc1
experimental endpoint: growth
test value: 71% (inactive)

molecule: O=c1[nH]c(CNc2ccc(NCc3c(-c4ccccc4)no[n+]3[O-])cc2)nc2c1cnn2-c1ccccc1
experimental endpoint: growth
test value: 80% (inactive)

molecule: Cc1ccc(NC(=O)N[C@@H](Cc2cc(F)cc(F)c2)C(=O)NC2C(=O)N3CCC[C@H]3C(=O)N3CCCC[C@H]3C(=O)N[C@@H](C)C(=O)N3C[C@H](C)C[C@H]3C(=O)O[C@H]2C)c(F)c1 (stereo partly drawn)
experimental endpoint: growth
test value: 44.3% (inactive)

molecule: COc1ccc(-c2no[n+]([O-])c2Nc2ccccc2Br)cc1
experimental endpoint: growth
test value: 88% (inactive)

molecule: O=C1Nc2ccc(Cl)cc2/C1=C/c1ccc(OCc2ccc(Br)cc2F)cc1
experimental endpoint: growth
test value: 100% (inactive)

molecule: O=C1Nc2cc(OC(F)(F)F)ccc2Oc2ccc(-c3ccnc(N4CCNCC4)c3)cc21
experimental endpoint: growth
test value: -79.3% (active)

molecule: COc1cc(OC)c(S(N)(=O)=O)cc1C(=O)/C=C/c1ccccc1
experimental endpoint: growth
test value: 68.1% (inactive)

Now for the molecule whose growth we want.
Incoming: What value of growth has been recorded for this entry: C#C[C@]1(O)CC[C@H]2[C@@H]3CC=C4c5sc(Nc6cc(OC)ccc6OC)nc5CC[C@]4(C)[C@H]3CC[C@@]21C
Outgoing: 14.4% (inactive)
